// reported T/C for each item listed
Test system: L1210 leukemia ip in BDF1 mice, survival T/C
Method Notes: NCI In Vivo Anticancer Drug Screen. Data for tumor model L1210 Leukemia (intraperitoneal) in B6D2F1 (BDF1) mice
Experimental Parameters: endpoint: mean survival time; dose: 400.0 mg/kg/injection; schedule: Q01DX001 (ip); vehicle: saline; higher = longer survival
Inconclusive results and toxic doses are left out.

Observe how each entry below is paired with its result.
# Compound, Target, Result
measured = [
    ("O=C1C2CCCCC2C(=O)N1O (centres undefined)", "L1210 leukemia ip in BDF1 mice, survival T/C", "94 % of control"),
    ("C=CCOC(=O)Nc1ccc(S(=O)(=O)NC2CCCCC2)cc1", "L1210 leukemia ip in BDF1 mice, survival T/C", "97 % of control"),
    ("[O-]/[N+](=C\\c1cccc(Cl)c1)c1ccccc1", "L1210 leukemia ip in BDF1 mice, survival T/C", "112 % of control"),
    ("CNC(CCC(=O)O)C(=O)O (centres undefined)", "L1210 leukemia ip in BDF1 mice, survival T/C", "91 % of control"),
    ("O=[N+]([O-])c1ccc(SCN(CSc2ccc([N+](=O)[O-])cc2)Cc2ccccc2)cc1", "L1210 leukemia ip in BDF1 mice, survival T/C", "90 % of control"),
    ("CC1CC2CCCC(O)=C2C(=O)O1 (centres undefined)", "L1210 leukemia ip in BDF1 mice, survival T/C", "105 % of control"),
]

Lab note: Cc1ccnc(NC(c2ccccc2)c2ccc3cccnc3c2O)c1 (centres undefined) gave T/C of 86 % of control

Short answer for CCOC(=O)C(C(C)=O)C(c1ccc(O)cc1)C(C(C)=O)C(=O)OCC (centres undefined) : T/C was 87 % of control

The measured T/C associated with ICCC(c1ccccc1)(c1ccccc1)c1ccccc1 reads 96 % of control
